Cited source: the supplement of paper PMC11208160

assay_remarks: recombinant barcode read abundance after kanamycin selection (control-corrected) (log10(CPM+1)); higher = more efficient recombination; sequences stand for … in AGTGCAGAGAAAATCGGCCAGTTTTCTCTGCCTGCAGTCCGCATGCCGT…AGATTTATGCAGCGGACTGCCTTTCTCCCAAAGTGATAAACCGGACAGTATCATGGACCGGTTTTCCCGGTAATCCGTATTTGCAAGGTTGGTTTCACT; site = the 11-nt target;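 further: IS621 recombinase and bridge RNA in Escherichia coli cells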
endpoint: recombinant barcode read abundance (log10)
Answers are plain numbers.

Worked cases, answers included:
CGTTCATCTTGGGTTCTAACCTGTTGCCT (site CGGTCATCTAG) : 0.0446
TACCCACCTTGGGTTCTAACCTGTTGCAG (site CCGAATTCTAA) : 0.159

For every item in the list below, what is its measured recombinant barcode read abundance (log10)?
1. TTACGAGCTTGGGTTCTAACCTGTTGCGG (site TTACGGGCTCC)
2. CTAAGAACTTGGGTTCTAACCTGTTGCCT (site CTAAGAACTAA)
3. CTCTAGACTTGGGTTCTAACCTGTTGCGT (site CTTTAGACTAT)

1. 0.608
2. 0.0228
3. 0.211

Provide each entry's recombinant barcode read abundance (log10) from the list below.
1. TGCCCCTCTTGGGTTCTAACCTGTTGCCG (site TGCCCCTCTCG)
2. GTGTGGCCTTGGGTTCTAACCTGTTGCCA (site TCCGATACTAC)
3. GACATTCCTTGGGTTCTAACCTGTTGCCT (site CACATTCCTAG)

[1.46, 0, 0.113]
